Test description: xn = mol fraction of the nth substance listed
Condition parameters: 323.15 K; 101.3 kPa; x1 = 0.1
Kindly state viscosity for each of the entries shown.
Give just the numeric value; mPa·s need not be written.

C=C[n+]1ccn(CCCC)c1.N[C@@H](Cc1c[nH]cn1)C(=O)[O-] + O has a reported viscosity of 1.7

Entry C=C[n+]1ccn(CCCC)c1.N[C@@H](CO)C(=O)[O-] + O , viscosity reported as 4.84

For record C=Cn1cc[n+](CCCC)c1.NCC(=O)[O-] + O the listed viscosity is 6.71

Lookup result for C=C[n+]1ccn(CCCC)c1.NCCCC[C@H](N)C(=O)[O-] + O ; measured viscosity: 1.97
